Consider the following compounds; for each one, report its pIC50.
# TESTED_TARGET: UniProt:J9SQF3
# Sequence (J9SQF3 1-1709 isoform J9SQF3-12): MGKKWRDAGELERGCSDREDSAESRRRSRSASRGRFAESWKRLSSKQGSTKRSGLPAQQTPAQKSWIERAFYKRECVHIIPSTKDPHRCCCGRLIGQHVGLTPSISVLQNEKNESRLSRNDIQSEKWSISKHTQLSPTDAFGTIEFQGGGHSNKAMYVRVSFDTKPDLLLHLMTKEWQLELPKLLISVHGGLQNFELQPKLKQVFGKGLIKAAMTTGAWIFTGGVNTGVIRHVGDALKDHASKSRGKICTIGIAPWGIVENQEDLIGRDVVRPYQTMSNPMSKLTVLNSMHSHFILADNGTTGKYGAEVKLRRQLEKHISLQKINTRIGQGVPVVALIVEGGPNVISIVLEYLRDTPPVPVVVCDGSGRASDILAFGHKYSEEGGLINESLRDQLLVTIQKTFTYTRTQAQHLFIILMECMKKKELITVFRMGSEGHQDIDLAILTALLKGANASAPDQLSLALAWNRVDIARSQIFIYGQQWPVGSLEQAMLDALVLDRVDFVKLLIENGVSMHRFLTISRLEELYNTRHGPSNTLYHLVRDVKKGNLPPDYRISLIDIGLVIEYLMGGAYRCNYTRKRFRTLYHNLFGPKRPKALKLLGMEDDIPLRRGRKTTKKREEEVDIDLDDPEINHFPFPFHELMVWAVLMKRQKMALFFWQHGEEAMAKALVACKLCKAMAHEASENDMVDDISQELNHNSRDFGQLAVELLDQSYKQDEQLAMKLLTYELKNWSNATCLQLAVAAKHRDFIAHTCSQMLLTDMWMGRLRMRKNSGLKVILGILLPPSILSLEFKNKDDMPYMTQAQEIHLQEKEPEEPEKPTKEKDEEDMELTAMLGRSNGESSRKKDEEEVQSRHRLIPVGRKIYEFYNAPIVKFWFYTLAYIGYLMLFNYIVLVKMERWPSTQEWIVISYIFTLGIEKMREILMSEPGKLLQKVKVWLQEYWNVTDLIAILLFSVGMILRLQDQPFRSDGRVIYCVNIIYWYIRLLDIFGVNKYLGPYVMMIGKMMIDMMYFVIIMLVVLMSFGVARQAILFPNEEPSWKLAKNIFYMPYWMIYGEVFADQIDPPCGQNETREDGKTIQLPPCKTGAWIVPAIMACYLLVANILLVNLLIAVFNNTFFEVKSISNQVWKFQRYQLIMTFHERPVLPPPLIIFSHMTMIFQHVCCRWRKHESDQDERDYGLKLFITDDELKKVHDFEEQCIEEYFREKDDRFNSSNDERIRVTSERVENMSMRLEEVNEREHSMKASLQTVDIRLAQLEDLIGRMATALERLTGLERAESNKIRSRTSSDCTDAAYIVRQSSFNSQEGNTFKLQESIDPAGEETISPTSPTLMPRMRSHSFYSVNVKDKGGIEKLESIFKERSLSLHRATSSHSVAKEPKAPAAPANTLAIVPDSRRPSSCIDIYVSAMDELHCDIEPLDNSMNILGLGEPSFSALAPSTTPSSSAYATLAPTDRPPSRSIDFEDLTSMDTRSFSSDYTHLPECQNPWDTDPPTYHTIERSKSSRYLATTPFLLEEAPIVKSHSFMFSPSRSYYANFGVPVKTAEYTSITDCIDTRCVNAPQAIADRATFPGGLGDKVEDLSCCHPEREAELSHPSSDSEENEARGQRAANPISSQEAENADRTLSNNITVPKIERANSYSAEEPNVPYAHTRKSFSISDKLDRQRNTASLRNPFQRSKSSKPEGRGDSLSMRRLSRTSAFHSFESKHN
# PROTOCOL_TEXT: TRPM3 ion channel driven Ca2+ uptake, Fluo-4 AM assay, PS-stimulated (mTRPM3)
# TEST_CONDITIONS: TRPM3 overexpressing flip-in HEK293 cells stimulated with Pregnenolone sulfate (PS) 50 μM, activity ranges A, B, C
pIC50: −log10 of the molar value.

Noted for `Cc1oc2ccc(OCc3cccc(F)c3F)cc2c1C(=O)N[C@H]1CCN(C(=O)OC(C)(C)C)C1` : its pIC50 reads 4.70 to 6.00

Noted for Cc1oc2c(C#N)cc(OCc3ccccc3)cc2c1C(=O)NC1CNCC1(F)F (single isomer, unassigned) [Cpd 305-En 2] : its pIC50 reads < 4.70

Noted for `Cc1oc2ccc(OCc3ccccc3)cc2c1C(=O)N[C@H]1C[C@H]2CN(C)CCN2C1` : its pIC50 reads 4.70 to 6.00

Noted for Cc1oc2ccc(OC(C)c3ccccc3)cc2c1C(=O)NC1(C(N)=O)CCC1 (single isomer, unassigned) [Cpd 343-En 1] : its pIC50 reads > 6.00

Noted for Cc1oc2ccc(OCc3ccccc3F)cc2c1C(=O)NC1CCN(CCO)C1=O (single isomer, unassigned) [Cpd 311-En 2] : its pIC50 reads > 6.00

Noted for `Cc1oc2ccc(OCc3ccccc3S(C)(=O)=O)cc2c1C(=O)NC1CCN(C)CC1` : its pIC50 reads < 4.70

Noted for Cc1oc2ccc(OCc3ccccc3S(C)(=O)=O)cc2c1C(=O)NC1CCNCC1(F)F (single isomer, unassigned) [Cpd 333-En 1] : its pIC50 reads 4.70 to 6.00

Noted for Cc1oc2ccc(OCc3cccc(F)c3F)cc2c1C(=O)NC1CCNCC1(F)F (centres unmarked) : its pIC50 reads > 6.00

Noted for Cc1oc2ccc(OC(CO)c3ccccc3F)cc2c1C(=O)N[C@@H](CO)C(N)=O (single isomer, unassigned) [Cpd 335-Dia 2] : its pIC50 reads > 6.00

Noted for `Cc1oc2ccc(OCc3cccc(C(F)(F)F)c3)cc2c1C(=O)NC1CCN(C)CC1` : its pIC50 reads 4.70 to 6.00

Noted for Cc1oc2ccc(OCc3ccccc3)cc2c1C(=O)NC1CNCC1(F)F (centres unmarked) : its pIC50 reads > 6.00

Noted for `Cc1oc2ccc(OCc3cccc(F)c3F)cc2c1C(=O)NC1(CO)CCOCC1` : its pIC50 reads > 6.00

Noted for `Cc1oc2ccc(OCc3ccc(C(F)(F)F)cc3)cc2c1C(=O)NC1CCN(C)CC1` : its pIC50 reads 4.70 to 6.00

Noted for `Cc1oc2ccc(OCc3cccc(OC(F)(F)F)c3)cc2c1C(=O)NC1CCN(C)CC1` : its pIC50 reads 4.70 to 6.00

Noted for `Cc1oc2ccc(OCc3ccccc3)cc2c1C(=O)NCCN(C)C` : its pIC50 reads 4.70 to 6.00

Noted for `Cc1oc2ccc(OCc3ccccc3)cc2c1C(=O)Nc1ccccc1` : its pIC50 reads > 6.00

Noted for Cc1oc2ccc(OC3CCc4ccccc43)cc2c1C(=O)O (centres unmarked) : its pIC50 reads 4.70 to 6.00

Noted for Cc1oc2ccc(OC(C)c3ccccc3)cc2c1C(=O)NC1(C(N)=O)CCC1 (single isomer, unassigned) [Cpd 343-En 2] : its pIC50 reads > 6.00

Noted for Cc1oc2ccc(OCc3ccccc3)cc2c1C(=O)NC1CCNC1=O (centres unmarked) : its pIC50 reads > 6.00

Noted for `Cc1oc2ccc(OCc3cccc(F)c3)cc2c1C(=O)NC1CCN(C)CC1` : its pIC50 reads 4.70 to 6.00

Noted for Cc1oc2ccc(OCc3ccccc3F)cc2c1C(=O)NC1CCNC1=O (centres unmarked) : its pIC50 reads > 6.00

Noted for `Cc1oc2ccc(OCc3ccccc3F)cc2c1C(=O)NC1(CO)CCC1` : its pIC50 reads > 6.00

Noted for Cc1oc2ccc(OC(CO)c3ccccc3F)cc2c1C(=O)NC1(C(N)=O)CCC1 (single isomer, unassigned) [Cpd 345-En 1] : its pIC50 reads > 6.00

Noted for `Cc1oc2ccc(OCc3ccccc3)cc2c1C(=O)NCCCN(C)C` : its pIC50 reads 4.70 to 6.00

Noted for `Cc1oc2ccc(OCc3c(F)cccc3Cl)cc2c1C(=O)O` : its pIC50 reads 4.70 to 6.00

Noted for Cc1oc2ccc(COc3ccccc3F)cc2c1C(=O)NC(C)C(N)=O (single isomer, unassigned) [Cpd 320-En 2] : its pIC50 reads > 6.00

Noted for `Cc1oc2ccc(OCc3ccccc3OCCN(C)C)cc2c1C(=O)NC1CCN(C)CC1` : its pIC50 reads < 4.70

Noted for `COc1cccc(COc2ccc3oc(C)c(C(=O)N[C@H]4CCNC4)c3c2)c1` : its pIC50 reads > 6.00

Noted for Cc1oc2ccc(OCc3ccccc3)cc2c1C(=O)NCC1CCCN1 (centres unmarked) : its pIC50 reads > 6.00
